Target: P-selectin (Homo sapiens)
Sequence (P16109 whole entry): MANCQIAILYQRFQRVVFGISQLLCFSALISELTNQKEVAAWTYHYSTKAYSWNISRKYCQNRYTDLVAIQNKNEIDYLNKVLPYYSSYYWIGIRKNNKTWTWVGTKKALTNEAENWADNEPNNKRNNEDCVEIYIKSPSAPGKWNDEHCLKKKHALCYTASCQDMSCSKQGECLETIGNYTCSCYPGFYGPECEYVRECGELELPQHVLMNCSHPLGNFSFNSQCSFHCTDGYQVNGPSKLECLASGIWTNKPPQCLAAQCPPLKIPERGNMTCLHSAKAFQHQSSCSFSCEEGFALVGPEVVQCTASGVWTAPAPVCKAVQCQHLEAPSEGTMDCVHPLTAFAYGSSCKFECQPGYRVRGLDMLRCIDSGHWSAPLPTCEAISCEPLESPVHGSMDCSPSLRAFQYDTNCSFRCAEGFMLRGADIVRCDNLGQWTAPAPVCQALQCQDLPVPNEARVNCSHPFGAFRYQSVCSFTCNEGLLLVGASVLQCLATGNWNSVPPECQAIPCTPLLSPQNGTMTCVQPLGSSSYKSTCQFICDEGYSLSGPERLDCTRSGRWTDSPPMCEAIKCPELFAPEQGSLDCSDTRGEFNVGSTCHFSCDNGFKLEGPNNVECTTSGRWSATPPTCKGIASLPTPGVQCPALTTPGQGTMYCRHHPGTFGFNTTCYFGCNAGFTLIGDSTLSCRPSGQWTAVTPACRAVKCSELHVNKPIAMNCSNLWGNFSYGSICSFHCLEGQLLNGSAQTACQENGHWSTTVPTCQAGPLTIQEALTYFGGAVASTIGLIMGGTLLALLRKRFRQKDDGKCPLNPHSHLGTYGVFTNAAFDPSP
pIC50: −log10 of the molar value.
readout label: pIC50

Exercise: Bench note: what pIC50 did `O=C(O)[C@]1(OCc2ccccc2-c2cccc3c2Sc2ccccc2S3)C[C@@H](O)[C@@H](O)[C@H](O)C1` show?
Key: ≥ 5.70

###

assay: Area under curve in rat ( 20 mg/kg iv ); assay type: ADME, organism-based; design: dose 20 mg/kg, route intravenous; conditions: in vivo
readout label: AUC (µM·h)
# unit: µM·h | format: bare number

Exercise: Bench note: what AUC did `O=C(O)[C@]1(OCc2ccc(-c3ccccc3C(F)(F)F)cc2)C[C@@H](O)[C@@H](O)[C@H](O)C1` show?
Key: 219
